Source listed as paper PMC11590026.

Listing of recorded MIC by entry.
Test system: P. aeruginosa
Experiment: MIC/MBC assay, twofold serial dilution
Assay type: cell-based, Pseudomonas aeruginosa
Settings: Pseudomonas aeruginosa, read-out: MIC
measurement type: MIC (µM)

1) O=C1Nc2ccc(Cl)cc2/C1=N/NC(=O)c1cc(Cc2ccc(O)c(C(=O)N/N=C3\C(=O)Nc4ccc(Cl)cc43)c2)ccc1O 0.055
2) O=C1Nc2ccc(Br)cc2/C1=N/NC(=O)c1cc(Cc2cc(Cl)c(O)c(C(=O)N/N=C3\C(=O)Nc4ccc(Br)cc43)c2)cc(Cl)c1O 0.065
3) COc1ccc2c(c1)/C(=N/NC(=O)c1cc(Cc3cc(Cl)c(O)c(C(=O)N/N=C4\C(=O)Nc5ccc(OC)cc54)c3)cc(Cl)c1O)C(=O)N2 0.069
4) Cc1ccc2c(c1)/C(=N/NC(=O)c1cc(Cc3ccc(O)c(C(=O)N/N=C4\C(=O)Nc5ccc(C)cc54)c3)ccc1O)C(=O)N2 0.061
